These data points were gathered from PubChem BioAssay AID2685.

Assay: qHTS Assay for Lipid Storage Modulators in Drosophila S3 Cells
Details: BODIPY lipid droplet fluorescence, 18-24 h, cells fed with added oleic acid; series mostly up to 46.1 µM
In all, about 320,000 compounds went through this assay and about 2,100 (0.66%) were called active. Not shown: some 53% with an inconclusive outcome. Calls come from the whole dose curve; as a rule, active = well fitted inhibition curve with a large enough effect in the signal ratio, with a control signal flat (not every such curve was filed as active); inconclusive = small, poorly fitted or top-dose-only effect, or effect the other way, or a change in a side signal; inactive = flat fitted curve, though single readings scatter; the % refers to the signal ratio. The entries come from a sample that favours actives as a whole.
Outcome codes: active, inactive

Molecule	Class
Cc1cccc(C)c1N(CC(=O)NCc1ccccc1)C(=O)c1csnn1	inactive
Cn1nccc1NC(=O)COCC(=O)O	inactive
COCCNC(=O)CN(Cc1ccc(Cl)cc1)S(C)(=O)=O	active
CC1(C)CC2CC(C)(CN2C(=O)COC(=O)c2ccc(Cl)c(N)c2)C1 (stereo not drawn)	inactive
O=C(O)c1c2c(nc3ccc(Cl)cc13)CCC2	active
Cc1sc2ncn(CC(=O)N3CCCCC3)c(=O)c2c1S(=O)(=O)N1CCC(C)CC1	inactive
CCOC(=O)C1CCN(C(=O)Cn2cnc3sc(C)c(S(=O)(=O)N4CCOCC4)c3c2=O)CC1	inactive
CN(C)C(=O)c1c2c(nc3ccccc13)CCCC2	inactive
CN(C(=O)CCCN1CCCC1=O)C1CCCN(Cc2ccccc2F)C1 (stereo not drawn)	inactive
COc1ccc(CNC(=O)CN(C)S(=O)(=O)c2ccc(Cl)cc2)cc1	inactive
CCOc1c2c(nc3ccc(Cl)cc13)CCC2	inactive
CC/C(O)=C(/C#N)c1nnc2n1CCCCC2	inactive
CCOC(=O)C1CCN(C(=O)Cn2cnc3sc(C)c(S(=O)(=O)N4CCC(C)CC4)c3c2=O)CC1	active
CN1CCN(C(c2ccccn2)c2cc(Cl)c3cccnc3c2O)CC1 (stereo not drawn)	inactive
COc1ccc(CCNC(=O)CN(Cc2ccc(Cl)cc2)S(C)(=O)=O)cc1	inactive
COc1ccc(CCNC(=O)CN(Cc2ccc(Cl)cc2)S(C)(=O)=O)cc1OC	inactive
COc1ccc(CNC(=O)CN(Cc2ccc(Cl)cc2)S(C)(=O)=O)cc1	inactive
COc1ccc(OC)c(CCNC(=O)Cn2cccc2C(=O)c2ccccc2)c1	inactive
O=C(Cc1ncc(C(F)(F)F)cc1Cl)NNc1cccc(F)n1	inactive
O=C(O)c1c2c(nc3ccc(F)cc13)CCC2	inactive
Cc1c(CN2CCCC(C(=O)c3cccc(OC(C)C)c3)C2)c(=O)n(-c2ccccc2)n1C (stereo not drawn)	inactive
CN1CCN(C(c2ccc(Br)cc2)c2cc(Cl)c3cccnc3c2O)CC1 (stereo not drawn)	active
CCN1CCCC1CNS(=O)(=O)c1c(C)cc(C)cc1C (stereo not drawn)	inactive

---

Recorded lipid storage change, negative = inhibition for the following compounds
Test: qHTS Assay for Lipid Storage Modulators in Drosophila S3 Cells; for lipid storage change, negative = inhibition: % is set by controls: 0 for no effect and ±100 for the full control effect
Conditions: BODIPY lipid droplet fluorescence, 18-24 h, cells fed with added oleic acid; series mostly up to 46.1 µM
About 2,100 (0.66%) of roughly 320,000 compounds were called active. Another 53% or so got no clear call; they are omitted. What follows is part of a selection rich in actives, with near analogues and random picks from the rest.
Property Label: lipid storage change, negative = inhibition

Compound	Test Result
COc1ccc(CNC(=O)CSc2nccn(-c3ccc(F)c(F)c3)c2=O)cc1	-25.5% [at 0.0737 µM] (inactive)
Cc1cc(C(=O)NCCCN2CCN(c3cc(Cl)ccc3C)CC2)n(-c2ccccc2)n1	-3.15% [at 9.22 µM] (inactive)
CN(C)S(=O)(=O)c1ccc2c(c1)nc(CCC(=O)NCc1ccc(Cl)cc1)n2C	-6.65% [at 9.22 µM] (inactive)
O=C(NNc1nc2c(F)cc(F)cc2s1)c1ccccc1	21.3% [at 9.22 µM] (inactive)
Cc1ccc(S(=O)(=O)N2CCOC2CNC(=O)C(=O)NCCc2c[nH]c3ccccc23)cc1 (stereo not given)	6.05% [at 9.22 µM] (inactive)
Cc1cccc(C)c1NC(=O)CN(C)C(=O)c1cccc(-n2cccc2)c1	9.6% [at 0.0737 µM] (inactive)
C=CCn1c(-c2cccc(OC)c2OC)n[nH]c1=S	16.6% [at 9.22 µM] (inactive)
O=C(CSc1nc(O)cc(=O)n1-c1ccccc1)c1ccc(Br)cc1	26.5% [at 9.22 µM] (inactive)
O=C(COc1ccc(/C=N/NC(=O)c2ccccc2O)cc1)Nc1ccccc1	9.4% [at 9.22 µM] (inactive)
Cc1c(C(=O)NCC2CCCO2)oc2ccc(S(=O)(=O)N3CC(C)CC(C)C3)cc12 (stereo not given)	16.1% [at 9.22 µM] (inactive)
